- experiment_summary: Pharmacokinetic parameters (Cmax, AUC, Tmax) of opioid given alone or with dopaminergic agent
- measurement_parameters: plasma, sc, 0.25 mg/kg, average AUC, nalbuphine 0.25 mg/kg subcutaneously, alone
Counter-ions that a name gives are not always drawn.
reported_endpoint: AUC

Data request: For the molecule shown here, Oc1ccc2c3c1O[C@H]1[C@@H](O)CC[C@@]4(O)[C@@H](C2)N(CC2CCC2)CC[C@]314 [NB, Nalbuphine HCl] , give the reported AUC.
Data returned: ~96 ng·h/mL
